# assay: qHTS assay to identify small molecule agonists of the peroxisome proliferator-activated receptor delta (PPARd) signaling pathway - cell viability counter screen (AID 743211); further: nearly all actives have a fitted effect of over 55% in size
# stated conditions: PPARd-bla HEK293H viability, CellTiter-Glo luminescence, 17 h; series mostly up to 62.6 µM
Records with an inconclusive call do not appear. The source made the active and inactive calls. The call rests on the fitted dose curve; in most records, active means well fitted cell-killing curve with a large enough effect in the repeat runs; inconclusive means weak or mixed curves; inactive means no such curve, though single readings can be large or run the other way.
Use one of these outcomes when replying: y = active, n = inactive

*Q* Write down the call the test reported for this compound. Item: OC(CCN1CCCC1)(c1ccccc1)C1CCCCC1 (centres undefined)
*A* n

*Q* Write down the call the test reported for this compound. Item: CC(CCC(=O)O)C(=O)O (centres undefined)
*A* n

*Q* Write down the call the test reported for this compound. Item: OCCN1CCN(CCCN2c3ccccc3Sc3ccc(Cl)cc32)CC1
*A* y

*Q* Write down the call the test reported for this compound. Item: CN1C[C@H](C(=O)N[C@]2(C)O[C@@]3(O)[C@@H]4CCCN4C(=O)[C@H](Cc4ccccc4)N3C2=O)C[C@@H]2c3cccc4[nH]cc(c34)C[C@H]21
*A* y
